procedure.details: in vitro
experimental.context: human, CC50, uninfected A549 cells, CellTiter-Glo

molecule	CC50
O=C1c2c(O)c(=O)ccn2N2CN1CCCCCc1ccncc1[C@@H]2c1ccccc1 (single isomer, unassigned) [Compound 34B]	> 2000 nM
CC[C@@H]1/C=C/COc2cc(F)ccc2[C@H](c2ccccc2)N2CN1C(=O)c1c(O)c(=O)ccn12 (single isomer, unassigned) [Compound 89BB]	> 200 nM
O=C1c2c(O)c(=O)ccn2N2CN1C/C=C/CCOc1cccc(c1)C2c1ccccc1 (stereo not drawn) [Compound 6]	> 20000 nM
O=C1c2c(O)c(=O)ccn2N2CN1C[C@@H]1C[C@H]1COc1cccc3c1[C@H]2c1ccccc1SC3 [Compound 87BB]	> 200 nM
O=C1c2c(O)c(=O)ccn2N2CN1C/C=C\COc1ccccc1[C@@H]2c1ccc(F)cc1 (single isomer, unassigned) [Compound 47B]	> 200 nM
O=C1c2c(O)c(=O)ccn2N2CN1[C@@H](C1CC1)/C=C/COc1c(ccc(F)c1F)[C@@H]2c1ccccc1 (single isomer, unassigned) [Compound 152AA]	> 100 nM
